Cited source: paper PMC7497253

Target: bZiPro (unlinked binary Zika virus NS2B-NS3 protease) (Zika virus)
Construct: The viral protease consists of the N‐terminal third of the nonstructural protein NS3; the NS2B construct ends at Glu96; His6 (cleaved yes); made in house
Sequence (A0A024B7W1 1503-1680 limits assumed): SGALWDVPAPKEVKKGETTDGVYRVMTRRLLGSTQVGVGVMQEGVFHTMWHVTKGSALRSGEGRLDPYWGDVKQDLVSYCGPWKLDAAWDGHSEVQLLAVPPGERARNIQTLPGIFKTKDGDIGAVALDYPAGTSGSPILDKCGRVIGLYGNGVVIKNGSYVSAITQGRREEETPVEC
Sequence (A0A024B7W1 1425-1464 limits assumed): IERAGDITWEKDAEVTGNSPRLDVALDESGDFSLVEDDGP
Test: Enzyme kinetics with bZiPro, fluorogenic substrate Phac-Leu-Lys-Lys-Arg-AMC
Format: biochemical
Conditions: K i bZiPro, mean±SD of at least three independent measurements; substrate 10 μM in assay, room temperature, pH 8.5
Readings of pKi for the listed compounds
Kindly note that pKi refers to -log10 of the concentration in mol/L and answer with the value alone.

1. N=C(N)N[C@H](CCCCNC(=O)[C@H](CCCCN)NC(=O)[C@H](CCCCN)NC(=O)Cc1cccc(CNC(=O)CN)c1)C(N)=O [Inhibitor 30] : 7.87
2. N=C(N)N[C@@H]1CCCCNC(=O)[C@H](CCCCN)NC(=O)[C@H](CCCCN)NC(=O)Cc2cccc(c2)CNC(=O)CCCNC1=O [Inhibitor 8] : 8.36

Now consider the entry below.
Which pKi is reported for this compound? N=C(N)N[C@H]1CCCCNC(=O)[C@H](CCCCN)NC(=O)[C@H](CCCCN)NC(=O)Cc2ccc(cc2)CNC(=O)CCCNC1=O [Inhibitor 2] 7.04
